# PROTOCOL: Pharmacokinetics in mice IV 3 and PO 10 mg/kg; plasma, lung and liver
# TEST CONDITIONS: mouse, in vivo, iv, 3 mg/kg, AUCINF_obs, mouse Plasma; Compound P3 dosed IV 3 mg/kg
MEASUREMENT KIND: AUC(0-inf) (ng·h/mL)
Give the value in ng·h/mL but do not write ng·h/mL after it.

The reported AUC(0-inf) of the compound O=C(Nc1ccc([N+](=O)[O-])cc1Cl)c1cc(Cl)ccc1OC(=O)N1CCNCC1 [Compound P3] was 1280

* * *

# PROTOCOL: Pharmacokinetics in male hamsters, plasma and lung, IV 3 mg/kg or PO 30 mg/kg
# TEST CONDITIONS: male, hamster, in vivo, iv, 3 mg/kg, Ratio (Lung/Plasma), Compound P3 IV 3 mg/kg, 0.083 h, individual animals
MEASUREMENT KIND: Kp at 0.083 h
// return a plain number; no unit text

Value of Kp at 0.083 h reported for the molecule O=C(Nc1ccc([N+](=O)[O-])cc1Cl)c1cc(Cl)ccc1OC(=O)N1CCNCC1 [Compound P3] is 34.1
